Would you kindly list % of control metabolism (SD, n = 3), raloxifene glucuronide G2 for each of these compounds?
- System: UGT enzymes of human liver microsomes
- EXPERIMENTAL DETAILS: Inhibition of raloxifene glucuronidation (G1, G2) in human liver microsomes
- Format: biochemical
- MEASUREMENT SETUP: G2; inhibitor 10 μM; raloxifene 50 μM, human liver microsomes 250 μg/ml, 15 min

In the examples that follow, each entry is paired with its recorded % of control metabolism (SD, n = 3), raloxifene glucuronide G2.
CC/C(=C(/CC)c1ccc(O)cc1)c1ccc(O)cc1 [Diethylstilbestrol, reference compound] | 111 (7) %
O=C(O[C@@H]1Cc2c(O)cc(O)cc2O[C@H]1c1cc(O)c(O)c(O)c1)c1cc(O)c(O)c(O)c1 [Gallocatechin gallate] | 83 (4) %
O=c1c(O)c(-c2ccc(O)c(O)c2)oc2cc(O)cc(O)c12 | 50 (1) %
CCCCCCCCOC(=O)c1cc(O)c(O)c(O)c1 [Octyl gallate] | 75 (8) %

Would you mind giving % of control metabolism (SD, n = 3), raloxifene glucuronide G2 for every compound in the list below?
1. O=C(O[C@@H]1Cc2c(O)cc(O)cc2O[C@@H]1c1ccc(O)c(O)c1)c1cc(O)c(O)c(O)c1 [Epicatechin gallate]
2. O=C(O[C@@H]1Cc2c(O)cc(O)cc2O[C@@H]1c1cc(O)c(O)c(O)c1)c1cc(O)c(O)c(O)c1 [Epigallocatechin gallate]

[reply]
1. 73 (4) %
2. 82 (3) %

----------
- TGT: UGT1A3 (Homo sapiens)
- Sequence (P35503 29-534): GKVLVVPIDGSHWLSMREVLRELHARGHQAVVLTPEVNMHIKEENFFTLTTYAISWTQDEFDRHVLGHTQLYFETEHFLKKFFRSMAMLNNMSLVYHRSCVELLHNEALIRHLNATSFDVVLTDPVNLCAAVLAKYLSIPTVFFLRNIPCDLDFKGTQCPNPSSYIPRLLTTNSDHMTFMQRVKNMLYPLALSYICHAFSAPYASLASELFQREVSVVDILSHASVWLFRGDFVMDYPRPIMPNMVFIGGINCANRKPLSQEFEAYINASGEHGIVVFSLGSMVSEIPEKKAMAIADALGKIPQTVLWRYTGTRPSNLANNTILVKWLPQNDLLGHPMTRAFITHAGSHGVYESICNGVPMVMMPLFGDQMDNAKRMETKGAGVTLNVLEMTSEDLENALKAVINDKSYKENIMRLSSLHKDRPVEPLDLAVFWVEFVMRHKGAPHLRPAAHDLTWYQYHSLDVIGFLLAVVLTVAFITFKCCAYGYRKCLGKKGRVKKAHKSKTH
- EXPERIMENTAL DETAILS: in vitro
- MEASUREMENT SETUP: pH 7.5, Inhibition of raloxifene glucuronidation, G2, UGT1A3
EXPERIMENTAL READOUT: activity at 15 min, 50 µM
Don't forget the unit after the number, please.

In the examples that follow, each entry is paired with its recorded activity at 15 min, 50 µM.
CCCOC(=O)c1cc(O)c(O)c(O)c1 [Propyl gallate] | 56%
COc1c(C)c2c(c(O)c1C/C=C(\C)CCC(=O)O)C(=O)OC2 [Mycophenolic acid, reference compound] | 87%
COc1cc(C2Oc3cc([C@H]4Oc5cc(O)cc(O)c5C(=O)[C@@H]4O)ccc3OC2CO)ccc1O (stereo partly shown) | 10%
O=C(O)Cc1ccccc1Nc1c(Cl)cccc1Cl [Diclofenac, reference compound] | 75%
O=C(O)c1cc(-c2ccc(F)cc2F)ccc1O [Diflunisal, reference compound] | 81%

Would you mind giving activity at 15 min, 50 µM for every compound in the list below?
1. O=C(O[C@@H]1Cc2c(O)cc(O)cc2O[C@@H]1c1ccc(O)c(O)c1)c1cc(O)c(O)c(O)c1 [Epicatechin gallate]
2. C=CCc1ccc(O)c(OC)c1

[reply]
1: 42%; 2: 85%

----------
- Tested on: UGT enzymes of human liver microsomes
- Construct: residual metabolism (percentage of control), labetalol LG1; other: labetalol 50 μM; residual metabolism (percentage of control), labetalol LG1; residual metabolism (percentage of control), labetalol LG2; inhi
- EXPERIMENTAL DETAILS: Inhibition of labetalol glucuronidation (LG1, LG2) in human liver microsomes
- Format: biochemical
- MEASUREMENT SETUP: labetalol 50 μM; inhibitor 50 μM
Would you kindly list residual metabolism (percentage of control), labetalol LG2 for each of these molecules?

Would you mind giving residual metabolism (percentage of control), labetalol LG2 for every molecule in the list below?
1. CC/C(=C(/CC)c1ccc(O)cc1)c1ccc(O)cc1 [Diethylstilbestrol, reference compound]
2. O=C(O)c1cc(-c2ccc(F)cc2F)ccc1O [Diflunisal, reference compound]
3. O=C(OC[C@H]1O[C@@H](OC(=O)c2cc(O)c(O)c(OC(=O)c3cc(O)c(O)c(O)c3)c2)[C@H](OC(=O)c2cc(O)c(O)c(OC(=O)c3cc(O)c(O)c(O)c3)c2)[C@@H](OC(=O)c2cc(O)c(O)c(OC(=O)c3cc(O)c(O)c(O)c3)c2)[C@@H]1OC(=O)c1cc(O)c(O)c(OC(=O)c2cc(O)c(O)c(O)c2)c1)c1cc(O)c(O)c(OC(=O)c2cc(O)c(O)c(O)c2)c1
4. O=c1c(O)c(-c2ccc(O)c(O)c2)oc2cc(O)cc(O)c12
5. O=C(O[C@@H]1Cc2c(O)cc(O)cc2O[C@H]1c1cc(O)c(O)c(O)c1)c1cc(O)c(O)c(O)c1 [Gallocatechin gallate]

[reply]
1: 29 (8) %; 2: 80 (3) %; 3: 37 (2) %; 4: 70 (3) %; 5: 55 (8) %

----------
- System: UGT enzymes of human liver microsomes
- EXPERIMENTAL DETAILS: Inhibition of raloxifene glucuronidation (G1, G2) in human liver microsomes
- Type: biochemical
- MEASUREMENT SETUP: raloxifene 50 μM; inhibitor 10 μM
Would you kindly list % of control metabolism, raloxifene G1 for each of these molecules?

In the examples that follow, each entry is paired with its recorded % of control metabolism, raloxifene G1.
O=c1c(O)c(-c2ccc(O)c(O)c2)oc2cc(O)cc(O)c12 | 48 (1) %
O=C(O[C@@H]1Cc2c(O)cc(O)cc2O[C@H]1c1cc(O)c(O)c(O)c1)c1cc(O)c(O)c(O)c1 [Gallocatechin gallate] | 80 (6) %

Would you mind giving % of control metabolism, raloxifene G1 for every molecule in the list below?
1. O=C(O[C@@H]1Cc2c(O)cc(O)cc2O[C@@H]1c1ccc(O)c(O)c1)c1cc(O)c(O)c(O)c1 [Epicatechin gallate]
2. CC/C(=C(/CC)c1ccc(O)cc1)c1ccc(O)cc1 [Diethylstilbestrol, reference compound]
3. O=C(OC[C@H]1O[C@@H](OC(=O)c2cc(O)c(O)c(OC(=O)c3cc(O)c(O)c(O)c3)c2)[C@H](OC(=O)c2cc(O)c(O)c(OC(=O)c3cc(O)c(O)c(O)c3)c2)[C@@H](OC(=O)c2cc(O)c(O)c(OC(=O)c3cc(O)c(O)c(O)c3)c2)[C@@H]1OC(=O)c1cc(O)c(O)c(OC(=O)c2cc(O)c(O)c(O)c2)c1)c1cc(O)c(O)c(OC(=O)c2cc(O)c(O)c(O)c2)c1

[reply]
1. 77 (4) %
2. 58 (3) %
3. 27 (1) %

Would you mind giving % of control metabolism, raloxifene G1 for every molecule in the list below?
1. CCCCCCCCOC(=O)c1cc(O)c(O)c(O)c1 [Octyl gallate]
2. O=C(O[C@@H]1Cc2c(O)cc(O)cc2O[C@@H]1c1cc(O)c(O)c(O)c1)c1cc(O)c(O)c(O)c1 [Epigallocatechin gallate]

[reply]
["68 (3) %", "85 (3) %"]

----------
Would you kindly list % of control metabolism (SD, n = 3), 7-HFC glucuronidation for each of these molecules?
- Tested on: UGT enzymes of human liver microsomes
- Construct: percentage of control metabolism, 7-HFC glucuronidation; percentage of control metabolism, 7-HFC glucuronidation
- EXPERIMENTAL DETAILS: Inhibition of 7-HFC glucuronidation in human liver microsomes
- Assay type: biochemical
- MEASUREMENT SETUP: inhibitor 200 μM; 7-HFC 50 μM, human liver microsomes 100 μg/ml, 15 min

COc1ccc2c(c1)c(CC(=O)O)c(C)n2C(=O)c1ccc(Cl)cc1 [Indomethacin, reference compound] | 73 (1) %
CC1=C(/C=C/C(C)=C/C=C/C(C)=C/CO)C(C)(C)CCC1 | 39 (1) %
CCCCCCCCOC(=O)c1cc(O)c(O)c(O)c1 [Octyl gallate] | 6 (0) %

Would you mind giving % of control metabolism (SD, n = 3), 7-HFC glucuronidation for every molecule in the list below?
1. CC(=O)OC/C=C(C)/C=C/C=C(C)/C=C/C1=C(C)CCCC1(C)C [Retinyl acetate]
2. O=C(O[C@@H]1Cc2c(O)cc(O)cc2O[C@H]1c1cc(O)c(O)c(O)c1)c1cc(O)c(O)c(O)c1 [Gallocatechin gallate]

[reply]
1. 60 (3) %
2. 25 (0) %

Would you mind giving % of control metabolism (SD, n = 3), 7-HFC glucuronidation for every molecule in the list below?
1. O=C(O)c1cc(-c2ccc(F)cc2F)ccc1O [Diflunisal, reference compound]
2. Oc1cc(O)c2c(c1)O[C@H](c1cc(O)c(O)c(O)c1)[C@H](O)C2 [Epigallocatechin]
3. O=C(O)c1ccccc1O

[reply]
1. 65 (3) %
2. 90 (1) %
3. 75 (2) %
